target: autotaxin (ATX) (Homo sapiens); construct: conditioned medium from the human melanoma cell line, MDA-MB-4355, which endogenously expresses autotaxin; serum-free conditioned medium, concentrated 20-fold; assay: Native Autotaxin Choline Release Assay; conditions: autotaxin in conditioned medium from human melanoma cell line; choline released from LPC; read-out: MDA-MB-435S Assay IC50
Catalogue of IC50 readings, one per entry.

>  <entry_smiles>
CCCn1cc(-n2c(C)c(Sc3cccc(C(=O)O)c3)c3ccc(Cl)c(F)c32)cn1

>  <IC50>
< 300 nM

$$$$
>  <entry_smiles>
COc1cccc2[nH]c(C)c(Sc3cccc(CC(=O)O)c3)c12

>  <IC50>
> 1000 nM

$$$$
>  <entry_smiles>
Cc1c(Sc2cccc(C(=O)NCC[N+](C)(C)C)c2)c2ccc(Br)cc2n1Cc1ccccc1

>  <IC50>
> 1000 nM

$$$$
>  <entry_smiles>
Cc1c(Sc2cccc(C(=O)O)c2)c2ccc(Cl)cc2n1-c1cncnc1

>  <IC50>
< 300 nM

$$$$
>  <entry_smiles>
COc1ccc2c(Sc3cccc(CC(=O)O)c3)c(C)[nH]c2c1

>  <IC50>
> 1000 nM

$$$$
>  <entry_smiles>
Cc1ccc(C(=O)O)cc1Sc1c(C)n(-c2cccnc2)c2cc(Cl)ccc12

>  <IC50>
> 1000 nM

$$$$
>  <entry_smiles>
CCCn1cc(-n2c(C)c(Sc3cccc(C(=O)O)c3F)c3ccc(Cl)c(F)c32)cn1

>  <IC50>
< 300 nM

$$$$
>  <entry_smiles>
CCn1cc(-n2c(C)c(Sc3cccc(C4(C(=O)O)CC4)c3)c3ccc(Cl)cc32)cn1

>  <IC50>
< 300 nM

$$$$

State its IC50: CCn1cc(-n2c(C)c(Sc3cccc(C(=O)O)c3F)c3ccc(Cl)cc32)cn1
< 300 nM

State its IC50: COc1ccc(CC(=O)O)cc1Sc1c(C)n(-c2cnn(C)c2)c2cc(Cl)ccc12
> 1000 nM

State its IC50: Cc1nn(C)cc1-n1c(C)c(Sc2cccc(C(=O)O)c2)c2ccc(Cl)cc21
< 300 nM

State its IC50: Cc1c(Sc2cccc(C(=O)O)c2)c2ccc(Br)cc2n1Cc1ccccc1
300 to 1000 nM

Recorded values, source patent US9000025B2.
